system: Vero cells; test: MTT assay, cell toxicity in non-infected cells; assay type: cell-based; conditions: non-infected cells; treatment for 7 days; read-out: CC50 (concentration at which cell toxicity is caused to 50% of cells)
property measured: CC50

Input: # CC50 lookup, item COC1=CC(=O)C(=C(O)/C=C/c2ccccc2)C1=O [lucidone, reference compound]
Output: > 60 µM

---

Experiment: MTT assay, cell toxicity in non-infected cells
Format: cell-based
Settings: African green monkey, Vero cells (non-infected); non-infected cells; treatment for 7 days; read-out: CC50 (concentration at which cell toxicity is caused to 50% of cells)
Procedure: (1) One day before the experiment, Vero cells were inoculated in a 96-well plate and incubated at 37° C. and 5% CO2. (2) Two-fold serial dilutions of 5-ALA were prepared (˜0.8 mM) using the maintenance culture solution (MEM+1% fetal bovine serum+10 mM non-essential amino acid+1000 U/ml penicillin+100 μg/ml streptomycin+1 mM HEPES). […] (7) The absorbance at 570 nm was measured, and the relative absorbance was calculated as a percentage with respect to the absorbance in the well of 0 mM treatment.
property measured: CC50 at 7 days

Input: I am curious: what CC50 at 7 days value has been reported for Cl.NCC(=O)CCC(=O)O [5-ALA, 5-aminolevulinic acid hydrochloride] ?
Output: > 800 µM
